- System Tested: Melanocortin receptor 3 (Homo sapiens, UniProt P41968)
- Sequence (P41968 whole entry): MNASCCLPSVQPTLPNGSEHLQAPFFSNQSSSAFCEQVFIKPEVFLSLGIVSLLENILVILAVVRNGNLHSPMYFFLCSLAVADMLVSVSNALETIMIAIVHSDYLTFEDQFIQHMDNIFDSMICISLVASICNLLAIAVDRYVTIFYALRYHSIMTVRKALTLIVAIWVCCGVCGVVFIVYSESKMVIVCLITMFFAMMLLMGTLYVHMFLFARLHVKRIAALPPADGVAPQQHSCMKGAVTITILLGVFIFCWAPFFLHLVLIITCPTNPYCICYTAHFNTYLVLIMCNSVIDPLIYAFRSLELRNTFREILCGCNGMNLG
- Measurement Description: Agonist activity at human MC3 receptor expressed in CHO cells assessed as cAMP accumulation at 10 uM relative to alpha-MSH
- Format: functional, cell-based
Please go through the items and note down their Activity.
One number for each entry, in %.

The examples below pair each entry with its known result.
Smiles Record	Activity [%]
CC[C@@H]1CN(C(=O)N[C@H](Cc2ccc(F)cc2)C(=O)N2CCC(C(=O)NC(C)(C)C)(C3CCCCC3)CC2)C[C@H](CC)N1	1.2
C[C@@H]1CN(C(=O)N[C@H](Cc2ccc(Cl)cc2)C(=O)N2CCC(C(=O)NC(C)(C)C)(C3CCCCC3)CC2)C[C@H](C)N1	1.3

Lookup: Look up and state reported Activity for C[C@@H]1CN(C(=O)N[C@H](Cc2ccc(F)cc2)C(=O)N2CCC(C(=O)NC(C)(C)C)(C3CCCCC3)CC2)C[C@H](C)N1C
Found: 0.6

* * *

- System Tested: Melanocortin receptor 4 (Homo sapiens)
- Sequence (P32245 whole entry): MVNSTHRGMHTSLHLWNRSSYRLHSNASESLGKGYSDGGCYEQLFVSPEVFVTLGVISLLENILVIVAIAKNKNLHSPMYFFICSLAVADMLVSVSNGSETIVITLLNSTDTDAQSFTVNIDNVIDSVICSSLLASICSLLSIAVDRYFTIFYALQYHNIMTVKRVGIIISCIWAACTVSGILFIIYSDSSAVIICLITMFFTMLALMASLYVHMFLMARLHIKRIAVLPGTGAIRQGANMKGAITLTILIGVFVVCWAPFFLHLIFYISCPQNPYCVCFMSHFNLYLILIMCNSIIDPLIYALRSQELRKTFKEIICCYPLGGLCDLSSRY
- Measurement Description: Agonist activity at human MC4 receptor expressed in CHO cells assessed as cAMP accumulation
Measured Parameter: EC50 (nM)
One number for each entry, in nM.

The examples below pair each entry with its known result.
Smiles Record	EC50 (nM)
C[C@@H]1CN(C(=O)N[C@H](Cc2ccc(F)cc2)C(=O)N2CCC(C(=O)NC(C)(C)C)(C3CCCCC3)CC2)C[C@H](C)N1C	60
C[C@H]1CN(C(=O)N[C@H](Cc2ccc(F)cc2)C(=O)N2CCC(C(=O)NC(C)(C)C)(C3CCCCC3)CC2)C[C@H](C)N1	58

Give EC50 for each listed item.
1. C[C@@H]1CN(C(=O)N[C@H](Cc2ccc(F)cc2)C(=O)N2CCC(C(=O)NC(C)(C)C)(C3CCCCC3)CC2)C[C@H](C)N1
2. CC[C@@H]1CN(C(=O)N[C@H](Cc2ccc(F)cc2)C(=O)N2CCC(C(=O)NC(C)(C)C)(C3CCCCC3)CC2)C[C@H](CC)N1

Found:
1. 22
2. 13

Lookup: Look up and state reported EC50 for C[C@@H]1CN(C(=O)N[C@H](Cc2ccc(F)cc2)C(=O)N2CCC(C(=O)NC(C)(C)C)(C3CCCCC3)CC2)C[C@@H](C)N1
Found: 18

* * *

- Measurement Description: Half life in rhesus monkey at 1 mg/kg, po
- Assay type: ADME, organism-based, Macaca mulatta
- Design: dose 1 mg/kg, route oral
- Condition Context: in vivo
Measured Parameter: half-life (h)
Numbers only, in h.

Lookup: Look up and state reported half-life for C[C@@H]1CN(C(=O)N[C@H](Cc2ccc(F)cc2)C(=O)N2CCC(C(=O)NC(C)(C)C)(C3CCCCC3)CC2)C[C@H](C)N1
Found: 5.3

* * *

Please go through the items and note down their IC50.
- System Tested: Melanocyte-stimulating hormone receptor (Homo sapiens, UniProt Q01726)
- Sequence (Q01726 whole entry): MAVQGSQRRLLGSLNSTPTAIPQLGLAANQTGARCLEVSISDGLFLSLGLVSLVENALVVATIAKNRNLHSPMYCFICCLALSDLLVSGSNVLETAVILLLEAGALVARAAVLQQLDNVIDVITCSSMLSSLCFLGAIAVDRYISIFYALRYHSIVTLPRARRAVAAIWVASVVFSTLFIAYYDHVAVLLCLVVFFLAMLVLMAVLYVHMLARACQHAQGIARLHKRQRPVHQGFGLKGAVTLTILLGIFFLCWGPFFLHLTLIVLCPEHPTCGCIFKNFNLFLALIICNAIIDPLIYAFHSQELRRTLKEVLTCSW
- Measurement Description: Displacement of [125I]NDP-alpha-MSH from human MC1 receptor expressed in CHO cells
Give bare numbers, in nM.

The examples below pair each entry with its known result.
Smiles Record	Unit Annotation	IC50
C[C@@H]1CN(C(=O)N[C@H](Cc2ccc(F)cc2)C(=O)N2CCC(C(=O)NC(C)(C)C)(C3CCCCC3)CC2)C[C@@H](C)N1	nM	2100
C[C@@H]1CN(C(=O)N[C@H](Cc2ccc(Cl)cc2)C(=O)N2CCC(C(=O)NC(C)(C)C)(C3CCCCC3)CC2)C[C@H](C)N1	nM	1500

Give IC50 for each listed item.
1. C[C@@H]1CN(C(=O)N[C@H](Cc2ccc(F)cc2)C(=O)N2CCC(C(=O)NC(C)(C)C)(C3CCCCC3)CC2)C[C@H](C)N1
2. C[C@@H]1CN(C(=O)N[C@H](Cc2ccc(F)cc2)C(=O)N2CCC(C(=O)NC(C)(C)C)(C3CCCCC3)CC2)C[C@H](C)N1C
3. CC[C@@H]1CN(C(=O)N[C@H](Cc2ccc(F)cc2)C(=O)N2CCC(C(=O)NC(C)(C)C)(C3CCCCC3)CC2)C[C@@H](CC)N1
4. CC[C@@H]1CN(C(=O)N[C@H](Cc2ccc(F)cc2)C(=O)N2CCC(C(=O)NC(C)(C)C)(C3CCCCC3)CC2)C[C@H](CC)N1
5. C[C@H]1CN(C(=O)N[C@H](Cc2ccc(F)cc2)C(=O)N2CCC(C(=O)NC(C)(C)C)(C3CCCCC3)CC2)C[C@H](C)N1

Found:
1. 5100
2. 7800
3. 2800
4. 2100
5. 3300
